# Tested on: SN12C renal
# assay: NCI tumour cell line growth inhibition, 48 h; in the data active means GI50 below about 0.43 µM; inactive means the rest
Entry note: the call must match one of active, inactive

Hello, I am checking results. What call was entered for Cc1ccc(NC(=O)c2ccc(NC3=C(Cl)C(=O)N(Cc4ccccc4)C3=O)cc2)cc1Cl ? inactive

What did the test return for CC(=O)OC1COC(Oc2c(C)c3c4c(c2O)[C@@H](C)CC[C@@H]4[C@@H](C)C[C@H]3C=C(C)C)C(O)C1O (some centres undefined) ? inactive

I would be grateful if you could indicate the recorded call for Cc1ccccc1CNc1c2ccccc2nc2ccccc12 . inactive

Answer briefly: the call reported for COC(=O)c1ccc2c(c1)C(=O)c1c-2n(CCCCl)c(=O)c2cc(OC)c(OC)cc12 in this assay. inactive

Hello, I am checking results. What call was entered for COc1ncc2cc1NS(=O)(=O)c1cccc(c1)C(=O)NCC1=CC=C(S1)c1ncnc3c1SC2=C3C ? active

Please share the test call associated with OC(c1cc(-c2ccc(Cl)cc2)nc2c(Cl)cccc12)C1CCCCN1 (centres undefined) . inactive

Give the logged outcome of this assay for the following molecule: Cc1cc(-c2ccco2)cc(C)c1/C=C/c1cncc(-c2nn[nH]n2)c1 inactive

What did the test return for C=CC[PH+](c1ccccc1)c1ccccc1.C=CC[PH+](c1ccccc1)c1ccccc1.[Pt+2].[S-]c1ncccn1.[S-]c1ncccn1 ? inactive

For CCOc1cc(/C=C/C(=O)CC(=O)/C=C/c2ccc(OC(=O)CNCCN(CC)CC)c(OCC)c2)ccc1OC(=O)CNCCN(CC)CC , what call appears in the results of this test? inactive

###

# Tested on: OVCAR-4 ovarian
# assay: NCI tumour cell line growth inhibition, 48 h; in the data active means GI50 below about 0.43 µM; inactive means the rest
Field 'call' accepts active, inactive

Assay result, entry CC(=O)OC1COC(Oc2c(C)c3c4c(c2O)[C@@H](C)CC[C@@H]4[C@@H](C)C[C@H]3C=C(C)C)C(O)C1O (stereo not given in full) — outcome? inactive

Record request — test call for N#Cc1cccc(C2C3=C(COC3=O)N(CCO)c3cc4c(cc32)CCC4)c1 (stereo not given) active

Which result was noted for this compound in the test: CCN(CCNc1ccc(C)c2sc3cc(Cl)ccc3c(=O)c12)CC(C)(C)O inactive

Tell me the recorded outcome of this test for Cc1ccc(NC2=CC(=O)C(=O)c3ccccc32)c(C)c1 . inactive

Hello, I am checking results. What call was entered for CCOC(=O)C1=CSC2=NC3=C(CCC/C3=C\c3cc(OC)c(OC)c(OC)c3)C(c3cc(OC)c(OC)c(OC)c3)N12 (stereo not given) ? inactive

###

# Test system: SF-295 CNS
# assay: NCI tumour cell line growth inhibition, 48 h
Where a SMILES comes first, the peptide text is derived from it. The star is where a group is joined. Boc = CC(C)(C)OC(=O)*; tBu = CC(C)(C)*
Assignment: determine reported TGI for the given compounds.

Requested read-out: TGI. Entry: O=C(/C=C/c1ccc(Cl)cc1)c1ccc(Cl)s1 > 100 µM

What measured TGI goes with CC(OC(C)(C)C)C(NC(=O)C(N)CCCCNC(=O)OC(C)(C)C)C(=O)NC(Cc1ccccc1)C(=O)O (stereo unspecified) (H-Lys(Boc)-Thr(tBu)-Phe-OH; configuration not given here) ? > 100 µM

# input compound: CSC1(Cc2ccccn2)C(=O)Nc2cccc([N+](=O)[O-])c21 (stereo unspecified) ; wanted: its TGI > 100 µM

# query: TGI of entry CO[C@]12C[C@@H](CNC(=O)c3cc(Br)c[nH]3)O[C@H]1NC(=O)N2 > 100 µM

I am curious: what TGI value has been reported for CCOP(=O)(/C=C/n1cnc2c(=O)n(C(C)=O)c(N)nc21)OCC ? > 100 µM

What value of TGI has been recorded for this entry: CCN(CC)Cc1cc(Nc2cc(C(F)(F)F)c(C#N)c3nc4ccccc4n23)ccc1O 3.81 µM

Given CCOC(=O)n1c2ccccc2c(=O)n1CCO , state its recorded TGI. > 100 µM

Query (compound): COc1cccc(N2C(=O)C3CC(CC(C)(C)C)c4c([nH]c5ccccc45)C3C2=O)c1 (stereo unspecified) ; field requested: TGI > 10 µM

Which TGI reading was recorded for the compound CCC1=C(c2ccc(OC)cc2)CC[C@]2(CCNC2=O)[C@@H]1C ? > 100 µM

Please report the recorded TGI for Cn1cnnc1SC(F)(F)c1nc2ccccc2o1 . > 100 µM

Fill in the blank: the reported TGI of NNC(=O)N/N=C1\CNC(=O)C(=O)C1c1nc2ccccc2s1 (stereo unspecified) is ____. > 100 µM

Suppose we examine the compound C=CC1(O)CCCC=C1COCc1ccccc1 (stereo unspecified) ; what TGI value has been reported? > 100 µM

Bench note: what TGI did Cc1ccc(C(=O)N2C/C(=C/c3ccccc3)C(=O)/C(=C/c3ccccc3)C2)cc1 show? > 100 µM

Requested read-out: TGI. Entry: CC(C)CCCC(C)[C@H]1CCC2[C@@H]3CCC4Cc5nc6c(nc5C[C@]4(C)C3CC[C@@]21C)CC1CC[C@@H]2C(CC[C@@]3(C)C2CC[C@@H]3O)[C@@]1(C)C6 (stereo partly specified) > 100 µM

Looking for the measured TGI of O=C1CC(=O)NC(=NN2C(=O)/C(=C/c3ccc(Cl)cc3)N=C2c2ccccc2)N1 , can you help? 33 µM

Sample CC(C)=NNc1ncnc2nc[nH]c12 — what was its TGI? > 100 µM

###

# Tested on: A498 renal
# assay: NCI tumour cell line growth inhibition, 48 h; in the data active means GI50 below about 0.43 µM; inactive means the rest
In this exercise, the only acceptable responses are t = active, f = inactive

Record request — test call for COC(=O)C1=Nc2ccc(F)cc2/C1=C/c1sc(=S)[nH]c1O t

Look up the recorded call for CN1CCOCCOCCOc2ccccc2NC(=O)c2nc(cnc2N)-c2ccc(cc2)S1(=O)=O in this test. t

Would you mind telling me which call this test gave Cc1ccccc1CNc1c2ccccc2nc2ccccc12 ? f

Please state the recorded outcome for this molecule: CCN(CC)CCCNc1c2ccc(Cl)cc2nc2ccc(OC)cc12 f

State the result this test recorded for CCN(CC)C(=O)CCCCCn1c2ccccc2c2c3c(c4c5ccccc5[nH]c4c21)C(=O)N(O)C3=O . f

For Cc1nn2c(-c3nc4cc(Cl)c(Cl)cc4[nH]3)c(-c3ccc(F)cc3)nc2s1 , which call appears in the assay record? f

# outcome recorded in this test, key = c1ccc2c(c1)[O][Sn][O]2 f

Assay result, entry CC1(C)CC(O)CC(C)(C)N1.CC1(C)CC(O)CC(C)(C)N1.CC1(C)CC(O)CC(C)(C)N1.CC1(C)CC(O)CC(C)(C)N1.Cl.[Ti] — outcome? f

Test call for this molecule, please: O=C(/C=C/c1cccc(Oc2ccc(Cl)cc2)c1)c1ccccc1 f

Name the outcome recorded for C=C(C)[C@@H]1CC[C@]2(C(=O)n3ccnc3)CC[C@]3(C)[C@H](CC[C@@H]4[C@@]5(C)CCCNC(C)(C)[C@@H]5CC[C@]43C)[C@@H]12 in the assay. f

###

# Tested on: SK-MEL-5 melanoma
# assay: NCI tumour cell line growth inhibition, 48 h
measurement-name: TGI (µM)
Numeric only. Scale: µM

Can you look up the measured TGI of Cc1ccc(O)cc1Nc1ccnc2cc(-c3ccccn3)ccc12 for me? 7.14

Which TGI reading was recorded for the compound CCN(CC)CCS(=O)(=O)CCNc1ccnc2cc(Cl)ccc12 ? 10.4

Which TGI is listed for O=C(CN(/C=C/C(=O)C(F)(F)F)c1ccccc1)c1ccc(F)cc1 ? 12.3

###

# Tested on: A498 renal
# assay: NCI tumour cell line growth inhibition, 48 h
What TGI was measured for each of the following?
Provide the reading as a plain figure in µM.

Could you share which TGI value was measured for CCc1c(C#N)c(SC(C(N)=O)c2ccccc2)nc(N2CCC(N)CC2)c1C#N (configuration not stated) ? 30.4

Could you share which TGI value was measured for CN(C)c1ccc2c(c1)OC(N)=C(C#N)C2c1ccc2c(c1)CCCN2C (configuration not stated) ? 4.07

// returns reported TGI for input CC(C)=NNc1ncnc2nc[nH]c12 54.2

###

# System: SN12C renal
# assay: NCI tumour cell line growth inhibition, 48 h
For each record, write down the corresponding TGI.

# get_value(readout='TGI', item= Cc1ccc2oc3c(ccc(=O)n3C)c(=O)c2c1 ) > 100 µM

What value of TGI has been recorded for this entry: CC1=NN(C(=O)c2ccc(C)cc2)C(=O)C1N=Nc1ccccc1C(=O)O (stereo unspecified) > 100 µM

Which value of TGI has been reported for Oc1ccc(-c2[nH]c3ccccc3c2-c2nc3ccccc3o2)cc1 in the records? 18.5 µM

// query TGI value for entry O=c1c2cccc3cccc(c4n1CCCN=4)c32 > 100 µM

I have this molecule here, FC(F)(F)c1cnc(N/N=C(/c2ccccc2)c2ccccn2)c(Cl)c1 , and I need its recorded TGI. > 100 µM

# input molecule: O=c1[nH]c(=O)n(C2CC(O)C(O)C(CO)O2)cc1F (stereo unspecified) ; wanted: its TGI > 100 µM
